These data points were gathered from ChEMBL document CHEMBL1201862.

# System: 786-0
# procedure.details: NCI tumour cell line growth inhibition, 48 h
The source made the active and inactive calls. Rule as the data show it: active = GI50 up to about 1.1 µM and inactive = higher.
Choose one outcome from this list and give only that: label 1 for active, label 0 for inactive

The examples below pair each entry with its known result.
compound | qualitative.label
CC(=O)NCCC1CN(C(=O)/C=C\I)c2ccccc21 (centres undefined) | label 0
Nc1c(Cl)ncnc1NCCCCCCCCCCCCNc1ncnc(Cl)c1N | label 0
Cc1nc2c(nc1C)-c1[nH]c3c(c1C(=O)C2=O)CCCC3=O | label 0
C1=C(CC2=C[P+](c3ccccc3)(c3ccccc3)C=C(c3ccccc3)O2)OC(c2ccccc2)=C[P+]1(c1ccccc1)c1ccccc1 | label 1
CCC(C)CCOC(=O)c1ccc(/N=C\c2ccc(/C=N/c3ccc(C(=O)OCCC(C)CC)cc3)cc2)cc1 (centres undefined) | label 0

Qu. Call for entry O=C(CC12C3C4C1C1C2C3C41CC(=O)NO)NO (centres undefined) :
Ans. label 0

Qu. Call for entry Cc1cn(C2CC(N=[N+]=[N-])C(COP(=O)(O)OCC3OC(n4cc(F)c(=O)[nH]c4=O)CC3O)O2)c(=O)[nH]c1=O (centres undefined) :
Ans. label 1

Qu. Call for entry Clc1ccc(-c2c3nc(c(-c4ccc(Cl)cc4)c4ccc([nH]4)c(-c4ccc(Cl)cc4)c4nc(c(-c5ccc(Cl)cc5)c5ccc2[nH]5)C=C4)C=C3)cc1 :
Ans. label 0

Qu. Call for entry CC(O)(/C=C/c1ccccc1)P(=O)(O)c1ccccc1 (centres undefined) :
Ans. label 0
